- Assay method text: chemical genetic growth profiling, strain panel (AID 1159580);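 also: tested at 20 µM; growth read once vehicle control cultures reached saturation at 30 °C; 1 = growth at the plate median or of vehicle wells; lower values mean less growth of the strain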
- Run conditions: S. cerevisiae deletion strains, growth OD, locus YJL154C, strain vps35, active compounds read low
Out of some 5,500 compounds screened, about 2,000 (36%) were called active. Inconclusive results (about 18%) are left out. The list shows a part of the results.
Measured quantity: normalized growth

NC(=NCCC[C@H](N)C(=O)O)NC(CCC(=O)O)C(=O)O (some centres undefined); 1.01 (inactive)
COc1ccccc1OCCNCC(O)COc1cccc2[nH]c3ccccc3c12 (centres undefined); 1.01 (inactive)

Supply normalized growth value. Item: O=C1O[C@H](C(O)CO)C(O)=C1O (some centres undefined) 1 (inactive)

Supply normalized growth value. Item: `CN/C(=C\[N+](=O)[O-])NCCSCc1ccc(CN(C)C)o1` 0.973 (inactive)

Supply normalized growth value. Item: `Nc1ccc(S(=O)(=O)Nc2ccc(Cl)nn2)cc1` 0.986 (inactive)

Supply normalized growth value. Item: `C[n+]1cccc(C(=O)[O-])c1` 0.948 (inactive)

Supply normalized growth value. Item: C=CCC1(C(C)CCC)C(=O)N=C(S)NC1=O (centres undefined) 0.965 (inactive)

Supply normalized growth value. Item: `Cc1ccc(/C(=C\CN2CCCC2)c2ccccn2)cc1` 1.01 (inactive)

Supply normalized growth value. Item: `Nc1ccc(S(=O)(=O)Nc2ccccn2)cc1` 1.02 (inactive)

====

- Assay method text: chemical genetic growth profiling, strain panel (AID 1159580);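 also: tested at 20 µM; growth read once vehicle control cultures reached saturation at 30 °C; 1 = growth at the plate median or of vehicle wells; lower values mean less growth of the strain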
- Run conditions: S. cerevisiae deletion strains, growth OD, locus YGR229C, strain SMI1, active compounds read low
Hit rate of the full screen: of about 5,500 compounds, about 2,000 (36%) were called active. Inconclusive results (about 18%) are left out. The list shows a part of the results.
Threshold 1. normalized growth below it: true (1). normalized growth at it or above: false (0).

Please review the following examples before continuing.
CC(C)(C)c1ccc(C(O)CCCN2CCC(C(O)(c3ccccc3)c3ccccc3)CC2)cc1 (stereo not drawn); true (1)
CC(C)N(C(=O)SCC(Cl)=C(Cl)Cl)C(C)C; false (0)
Nc1ncnc2c1ncn2[C@@H]1O[C@H](COP(=O)(O)OP(=O)(O)OP(=O)(O)OP(=O)(O)OC[C@@H]2O[C@H](n3cnc4c(N)ncnc43)C(O)[C@@H]2O)[C@H](O)C1O (stereo partly drawn); false (0)
c1ccc2c(c1)CCc1c-2[nH]c2ccccc12; true (1)

For `O=C(O)CCC(=O)C(=O)O` , is the recorded normalized growth below the cut-off of 1? false (0)

For CC1(C)C(C(Cl)Cl)C2(Cl)C(Cl)C(Cl)C1(Cl)C2(Cl)Cl (stereo not drawn) , is the recorded normalized growth below the cut-off of 1? true (1)

For CC1(C)CC2C1(O)CCC1(C)C=CC(O)C21CO (stereo not drawn) , is the recorded normalized growth below the cut-off of 1? false (0)

For `COc1cc(OC)c2c(=O)c(-c3ccccc3)c(C)oc2c1OC` , is the recorded normalized growth below the cut-off of 1? false (0)

====

List of normalized growth values.
- Assay method text: chemical genetic growth profiling, strain panel (AID 1159580);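 also: tested at 20 µM; growth read once vehicle control cultures reached saturation at 30 °C; 1 = growth at the plate median or of vehicle wells; lower values mean less growth of the strain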
- Run conditions: S. cerevisiae deletion strains, growth OD, locus YIL125W, strain kgd1, active compounds read low
Among all 5,500 compounds or so, about 2,000 (36%) were called active. Roughly 18% stayed inconclusive and do not appear here. Some of the results follow.
In your answer, state the number alone without any accompanying words.

Solved entries:
NC(=NCCC[C@H](N)C(=O)O)NC(CCC(=O)O)C(=O)O (some centres not stated); 1.02
O=C(O)CF; 0.986
C1CNCCN1; 1
CCN(CC)CCNC(=O)c1cc(S(C)(=O)=O)ccc1OC; 1.02
CC(=O)O[C@@H]1CC2C(C)(C)C(=O)CC[C@]2(C)C2CC[C@]3(C)C(=CC(=O)O[C@H]3c3ccoc3)[C@@]21C (some centres not stated); 0.993

Supply normalized growth value. Item: O=C1C=CC2=C3c4cc(O)c(O)cc4CC3(O)COC2=C1O (configuration not stated) 1.01
